meta.source: patent EP0545103A1

Measured ARMYWORM Day 5 by item
System: Spodoptera eridania, 3rd instar larvae, southern armyworm
Experiment: Southern armyworm 3rd instar test, dipped limabean leaf
Type: in vivo
Design: key: 0: no effect; 10-25% kill; 26-35% kill; 36-45% kill; 46-55% kill; 56-65% kill; 66-75% kill; 76-85% kill; 86-99% kill; 9: 100% kill
Details: 10 ppm; rating at 5 days

# return recorded ARMYWORM Day 5 for input CN=C(NC)SCn1c(Br)c(Br)c(C#N)c1Br [Example 14]
0

# return recorded ARMYWORM Day 5 for input N#Cc1c(Br)c(Br)n(CSCc2ccccc2)c1Br [Example 40]
0

# return recorded ARMYWORM Day 5 for input CN(C)C(=S)SCn1c(Br)c(Br)c(C#N)c1Br [Example 31]
0

# return recorded ARMYWORM Day 5 for input N#Cc1c(Br)c(C(F)(F)F)n(CS(=O)(=O)c2ccccc2)c1-c1ccc(Cl)cc1 [Example 46]
0

# return recorded ARMYWORM Day 5 for input N#Cc1c(Cl)c(C(F)(F)F)n(CSC2=NCCN2)c1-c1ccc(Cl)cc1 [Example 4]
9 (100% kill)

# return recorded ARMYWORM Day 5 for input N#Cc1c(Br)c(C(F)(F)F)n(CSC2=NCCS2)c1-c1ccc(Cl)cc1 [Example 16]
9 (100% kill)

# return recorded ARMYWORM Day 5 for input N#Cc1c(Br)c(Br)n(CSC(=N)N)c1Br [Example 20]
0

# return recorded ARMYWORM Day 5 for input N#Cc1c(Cl)c(C(F)(F)F)n(CSC(=N)N)c1-c1ccc(Cl)cc1 [Example 3]
9 (100% kill)

# return recorded ARMYWORM Day 5 for input FC(F)(F)c1c(Br)c(-c2ccc(Cl)c(Cl)c2)n(CSC2=NCCCN2)c1C(F)(F)F [Example 17]
9 (100% kill)
